target: Cytochrome P450 3A4 (Homo sapiens)
testDescription: Cytochrome panel assay with activity outcomes
testContext: recombinant CYP, pro-luciferin dealkylation, luminescence, p450-cyp3a4; series mostly up to 57.1 µM
The campaign covered roughly 16,000 compounds. About 5,100 (32%) were called active. Roughly 25% stayed inconclusive and do not appear here. The call rests on the fitted dose curve; in most records, active means well fitted curve in the direction sought with a large enough effect; inconclusive means small, poorly fitted or top-dose-only effect, or effect the other way; inactive means no such curve, though single readings can be large or run the other way. The list shows a part of the results.
Outcome codes: True = active, False = inactive

# compoundSmiles, classAssignment
records = [
    ("Cc1ccccc1Oc1ncnc2sccc12", "False"),
    ("NS(=O)(=O)c1cc2c(cc1Cl)NC(CSCc1ccccc1)=NS2(=O)=O", "True"),
    ("CC1=N/C(=C\\c2ccc([N+](=O)[O-])cc2)C(=O)N1c1ccc(Cl)cc1", "False"),
    ("O=C(c1cnccn1)N1CCC[C@@]2(CCN(c3ccncc3)C2)C1", "True"),
    ("CC(=O)N1CCC2(CC1)CN(c1ccncc1)C2", "False"),
    ("C=CCN=C1CC(C)(C)CC(=O)/C1=C(/O)CCC(=O)OC", "False"),
]

====

target: Cytochrome P450 3A4 (Homo sapiens) (UniProt P08684)
Sequence (P08684 whole entry, looked up): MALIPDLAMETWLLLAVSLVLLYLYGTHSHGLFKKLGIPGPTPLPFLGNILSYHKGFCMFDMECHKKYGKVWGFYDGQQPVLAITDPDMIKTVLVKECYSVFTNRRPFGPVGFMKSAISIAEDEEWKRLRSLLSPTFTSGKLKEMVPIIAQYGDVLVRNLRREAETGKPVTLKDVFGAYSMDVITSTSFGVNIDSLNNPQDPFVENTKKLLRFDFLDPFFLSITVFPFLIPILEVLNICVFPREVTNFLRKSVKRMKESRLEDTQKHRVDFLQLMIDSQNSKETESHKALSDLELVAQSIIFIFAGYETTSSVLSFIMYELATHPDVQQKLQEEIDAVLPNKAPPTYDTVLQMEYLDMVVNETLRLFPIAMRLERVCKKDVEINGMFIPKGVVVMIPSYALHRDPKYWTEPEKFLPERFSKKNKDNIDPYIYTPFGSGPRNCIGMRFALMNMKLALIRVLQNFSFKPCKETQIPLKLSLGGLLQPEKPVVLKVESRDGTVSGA
testDescription: Cytochrome panel assay with activity outcomes
testContext: recombinant CYP, pro-luciferin dealkylation, luminescence, p450-cyp3a4; series mostly up to 57.1 µM
In all, about 16,000 compounds went through this assay and about 5,100 (32%) were called active. About 25% were inconclusive and are not listed. The call rests on the fitted dose curve; in most records, active means well fitted curve in the direction sought with a large enough effect; inconclusive means small, poorly fitted or top-dose-only effect, or effect the other way; inactive means no such curve, though single readings can be large or run the other way. The list shows a part of the results.
Outcome codes: active, inactive

# molecule, classAssignment
data = [
    ("CS(=O)(=O)Nc1cccc(-c2cc(NCc3cccs3)ncn2)c1", "active"),
    ("CC(C(=O)NC1CCCC1)N(C(=O)c1ccc(-c2ccccc2)[nH]1)c1ccccc1F (configuration not stated)", "active"),
    ("CN(C)C(=O)c1ccc(-c2nc(NCc3cccs3)c3ccccc3n2)cc1", "active"),
    ("O=C(Nc1ccccc1)N1CCCC2(CCN(C(=O)c3cc(C(F)(F)F)cc(C(F)(F)F)c3)CC2)C1", "active"),
    ("CC(=O)NCCNc1nc(-c2ccc(C(=O)N(C)C)cc2)nc2ccccc12", "inactive"),
    ("O=C1NCCN1Cc1ccccc1F", "active"),
    ("Oc1ccc(C2Nc3cccc4cccc(c34)N2)c(O)c1", "active"),
    ("CCCCC(=O)NC(Nc1cc(C)ccn1)(C(=O)OCC)C(F)(F)F (configuration not stated)", "active"),
    ("C=CCn1c(SCC(=O)Nc2ncc(Cc3ccc(Br)cc3)s2)nnc1-c1ccncc1", "active"),
    ("Cn1c(=O)c(-c2cccs2)nc2cncnc21", "active"),
    ("CCC(=O)c1ccc(OCC(O)CN2CCCCC2)cc1 (configuration not stated)", "inactive"),
    ("COCCn1c(=O)c(-c2cccs2)nc2cncnc21", "active"),
    ("COc1cccc(Nc2ncc3nc(C)c(=O)n(-c4ccccc4)c3n2)c1", "active"),
    ("COc1ccc2[nH]cc(CCNc3ccnc(-c4ccccc4C(F)(F)F)n3)c2c1", "active"),
    ("CN(C)C(=O)c1ccc(-c2nc(NCc3ccccc3)c3ccccc3n2)cc1", "active"),
    ("c1ccc2nc(C3=NCCN3)cnc2c1", "inactive"),
    ("COc1cccc(CNC(=O)C2CCN(S(=O)(=O)N3CCCCC3)CC2)c1", "active"),
    ("O=C(c1cc(-c2ccncc2)nc2ccccc12)N1CCN(c2ccc(N3CCOCC3)nn2)CC1", "active"),
    ("Cc1ccc(-n2nnnc2-c2cnc3ccc(Cl)cc3c2-c2ccccc2)cc1", "active"),
    ("Oc1ccccc1C1Nc2cccc3cccc(c23)N1", "inactive"),
    ("COc1ccc(-n2c(=O)c(C)nc3cnc(Nc4ccccc4)nc32)cc1", "active"),
    ("Cc1cc(N2CCOCC2)ccc1/C=C1\\SC(=O)N(C(C)C)C1=O", "inactive"),
    ("COc1ccc2[nH]cc(CCNc3ccnc(-c4ccccc4Cl)n3)c2c1", "active"),
    ("Oc1ccc(OCc2ccccc2)cc1", "inactive"),
    ("C#CCn1c(S(=O)(=O)Cc2ccc(OC)cc2)nc(-c2ccccc2)c1-c1ccccc1", "active"),
    ("O=C(O)Cc1cc(I)c(Oc2ccc(O)c(I)c2)c(I)c1", "inactive"),
    ("O=C(O)c1ccc2c(c1)C(=O)N(C(Cc1ccc(O)cc1)C(=O)O)C2=O (configuration not stated)", "inactive"),
    ("COc1ccc(C(=O)Nc2ccc(S(=O)(=O)N3CCOCC3)cc2)cc1OC", "inactive"),
    ("COCCn1c(=O)c(C)nc2cncnc21", "active"),
    ("O=C(Cc1ccccc1[N+](=O)[O-])NCCSCc1c(F)cccc1Cl", "active"),
    ("CS(=O)(=O)Nc1cccc(-c2cc(Nc3ccccc3)ncn2)c1", "active"),
    ("CN(C)C(=O)c1ccc(-c2nc(NC3CCNCC3)c3ccccc3n2)cc1", "inactive"),
    ("CC[C@H](C)[C@@H]1O[C@]2(CC[C@@H]1C)C[C@H]1C[C@H](CC=C(C)[C@@H](O[C@@H]3C[C@H](OC)[C@H](O[C@@H]4C[C@H](OC)[C@H](O)[C@H](C)O4)[C@H](C)O3)[C@@H](C)C=CC=C3CO[C@@H]4[C@@H](O)C(C)=C[C@@H](C(=O)O1)[C@]34O)O2", "inactive"),
    ("CC(=O)Nc1ccccc1C(=O)C(=O)O", "inactive"),
    ("COc1ccc(-n2c(=O)c(-c3cccs3)nc3cncnc32)cc1", "inactive"),
    ("COc1ccc(Cl)cc1N=Nc1ncc[nH]1", "active"),
    ("Cc1nnsc1SC(C)C(=O)O (configuration not stated)", "inactive"),
]

====

The reader will find reported activity, negative = inhibition values listed item by item below.
target: Cytochrome P450 3A4 (Homo sapiens)
testDescription: Cytochrome panel assay with activity outcomes; on activity, negative = inhibition: on the % scale 0 is the no-effect control and ±100 the full control effect
testContext: recombinant CYP, pro-luciferin dealkylation, luminescence, p450-cyp3a4; series mostly up to 57.1 µM
Screen size: about 16,000 compounds; about 5,100 (32%) were called active. About 25% were inconclusive and are not listed. Some of the results follow.
resultType: activity, negative = inhibition

# compound, resultType, observedMeasurement
rows = [
    ("O=c1ccc(-c2ccccc2)n[nH]1", "activity, negative = inhibition", "-16.6% [at 11.4 µM] (inactive)"),
    ("O=C(c1cccs1)n1nc(-c2ccc(Cl)cc2)nc1NCc1ccco1", "activity, negative = inhibition", "-4.78% [at 2.29 µM] (inactive)"),
    ("c1ccc(CCCNc2nnnc3ccccc23)cc1", "activity, negative = inhibition", "-29.6% [at 11.4 µM] (inactive)"),
    ("CC(C)(N)C(=O)N[C@@H]1C(=O)N2[C@@H]1SC(C)(C)[C@H]2C(=O)O", "activity, negative = inhibition", "-5.57% [at 11.4 µM] (inactive)"),
    ("NC(=O)[C@@H]1CCCN1Cc1ccc2c(c1)OCO2", "activity, negative = inhibition", "-37.8% [at 11.4 µM] (inactive)"),
    ("CN(C)c1ncnc2c1ncn2CCn1cnc2c(N(C)C)ncnc21", "activity, negative = inhibition", "8.51% [at 11.4 µM] (inactive)"),
    ("O=C1C=CC(=Nc2cccc3c(N=C4C=CC(=O)O4)cccc23)O1", "activity, negative = inhibition", "-24.5% [at 11.4 µM] (inactive)"),
    ("Cc1ccc(C)c(NC(=O)C2CC3c4ccccc4C2c2ccccc23)c1 (stereo not drawn)", "activity, negative = inhibition", "-27.2% [at 2.29 µM] (inactive)"),
]

====

target: Cytochrome P450 3A4 (Homo sapiens)
testDescription: Cytochrome panel assay with activity outcomes
testContext: recombinant CYP, pro-luciferin dealkylation, luminescence, p450-cyp3a4; series mostly up to 57.1 µM
In all, about 16,000 compounds went through this assay and about 5,100 (32%) were called active. About 25% were inconclusive and are not listed. The call rests on the fitted dose curve; in most records, active means well fitted curve in the direction sought with a large enough effect; inconclusive means small, poorly fitted or top-dose-only effect, or effect the other way; inactive means no such curve, though single readings can be large or run the other way. Some of the results follow.
Outcome codes: True for active, False for inactive

# compound, classAssignment
records = [
    ("C/C(=N\\N=C(c1ccccc1)c1ccccc1)c1cccs1", "True"),
    ("COc1cccc(C(=O)N2N=C(c3cccc(OC)c3)CC2(O)C(F)(F)F)c1 (stereo unspecified)", "True"),
    ("Cc1ccc(NC(=O)CCc2ccc(S(=O)(=O)NC3CCCCC3)cc2)cc1", "True"),
    ("Cc1noc(C)c1-c1cncnc1NCc1cccnc1", "True"),
    ("Cc1noc(C)c1-c1cncnc1NCc1ccccc1", "True"),
    ("O=c1c2ccccc2c(-c2ccccc2)nn1Cc1ccc(Cl)cc1", "True"),
    ("Cc1cnc(CNc2ncncc2-c2c(C)noc2C)cn1", "True"),
    ("CC(=O)NS(=O)(=O)c1ccc(NC(=O)NC2CCCCC2)cc1", "False"),
    ("C/C(=N\\N=C1\\NC(=O)CC(C(=O)O)S1)c1cccs1 (stereo unspecified)", "False"),
    ("Clc1ccc(-c2nc3ncccn3c2Nc2ccc3c(c2)OCCO3)cc1", "True"),
    ("O=C(NNS(=O)(=O)c1ccc(Cl)cc1)NC1CCCCC1", "False"),
]
